- Test system: Fibrinogen (Alexa647-labelled)
- measurement_notes: fibrinogen binders on compound microarrays, profiling panel, artefact control for SMM control-protein annotation, biochemical, small-molecule microarray, 635/667 nm fluorescence (AID 1131);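 note: z-score merges 667 nm fluorescence with per-spot signal-to-noise over triplicate slides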
- protocol_conditions: fibrinogen-A647 binding fluorescence, higher = more signal
measurement_name: composite z-score
Give only the figure.

{"compound": "CC(C)C(=C=CC[C@H](O)c1cccc(OCCO)c1)CCO", "composite z-score": -1}
{"compound": "CN1C(=O)C2C=CC(C(O)c3cc(C(F)(F)F)cc(C(F)(F)F)c3)N(Nc3ccccc3)C2C1=O (centres undefined)", "composite z-score": -0.35}
{"compound": "COCCOC(=O)N1C(=O)[C@@]2(c3cc(C#Cc4ccc(OC)cc4)ccc31)[C@H](C(=O)NC[C@H](O)c1ccccc1)[C@H]1C(=O)O[C@H](c3ccccc3)[C@H](c3ccccc3)N1[C@@H]2c1ccc(OCCO)cc1", "composite z-score": 0.801}

Consider the record given below.
Considering "COCC1=C2[C@@H](CCc3ccccc3)OB(O)C[C@@H]2[C@@H]2C(=O)N(C)C(=O)[C@@H]2C1" , its composite z-score with Fibrinogen (Alexa647-labelled) was recorded as 0.353

* * *

- Test system: Plasmodium falciparum Sir2 (PF13_0152, Sir2A)
- measurement_notes: pfSir2 binders on small-molecule microarrays, primary screen, biochemical, small-molecule microarray, 635 nm fluorescence (AID 1098);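 note: score merges spot fluorescence intensity with its signal-to-noise ratio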
- protocol_conditions: small-molecule microarray binding, fluorescence 635 nm; higher = more signal
measurement_name: composite z-score
Lab note: record the figure alone, no unit after it.

{"molecule": "[N-]=[N+]=Nc1ccccc1[C@@H]1OC(c2ccc(OCCCO)cc2)=N[C@]1(Cc1ccccc1)C(=O)NCc1ccccc1", "assayed_target": "Plasmodium falciparum Sir2 (PF13_0152, Sir2A)", "composite z-score": 1.57}
{"molecule": "[N-]=[N+]=NCc1ccccc1C[C@]1(C(=O)N2CCOCC2)COC(c2ccc(OCCCO)cc2)=N1", "assayed_target": "Plasmodium falciparum Sir2 (PF13_0152, Sir2A)", "composite z-score": 0.947}
{"molecule": "CCOC(=O)C=Cc1cc(F)ccc1O", "assayed_target": "Plasmodium falciparum Sir2 (PF13_0152, Sir2A)", "composite z-score": 0.188}
{"molecule": "CCOC(=O)C1=CCC(c2ccco2)N(S(=O)(=O)c2ccc(C)cc2)C1 (stereo not given)", "assayed_target": "Plasmodium falciparum Sir2 (PF13_0152, Sir2A)", "composite z-score": 1.04}

# evaluate next
// composite z-score value for "COc1cc(CO)cc(I)c1O[C@H]1C=C(C(=O)NCCO)C[C@@H](NCC2CCCCC2)[C@@H]1O" : 0.587

* * *

Attribute: z-score
- measurement_notes: basal RPMI8226 viability, no added stimulus, profiling panel, cell-based, calcein-AM fluorescence, 48 h, PK04 Diversity Set (AID 1166);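 note: cells grown under basal conditions without added stimulus; test concentration not given here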
- protocol_conditions: RPMI8226 myeloma viability, higher = more signal
Give only the figure.

{"compound": "O=c1cccc(-c2ccc(F)cc2)o1", "z-score": -0.913}
{"compound": "COc1cc(NN2C(C(O)C3CCCCC3)C=CC3C(=O)N(c4ccccc4)C(=O)C32)cc(OC)c1OC (stereo not drawn)", "z-score": -1.8}

In plain terms, O=C1OCCC/C=C\[C@H]2OC34C=CCN(c5ccc6ccccc6c5)C(=O)[C@H]3N(CCCO)C(=O)[C@@H]4C12 (stereo partly drawn) has a documented z-score of -0.686
